Form field: koff (one value per entry).
Target: T1, human serum albumin (human, UniProt P02768 25-609)
T1 construct: Immobilised on SPR chips; also added in solution in the FcRn occupancy assays; also called HSA; humanSA
Experimental protocol: SPR Biacore 3000, HSA on chip, pH 5.5
Reply with just the number (in s⁻¹).

Lab book: koff of 2H11-v15 fused at the C-terminus of Fc-ABDEG (two-armed) (Fc fusion, not shown: Fc-ABDEG domain) GGGGSGGGGSGGGGSGGGGSELQVVESGGGLVQAGGSLRLSCAASGRTFRSNTMGWFRQAPGKEREFVAAITWSGGTTYYADSVKGRFAISGDNAKNTVYLQMNSLKPEDTAVYYCAAEGPKWEPWNGIYHPAAFGSWGQGTQVTVSS noted as 0.00174

// sample 2H11-v3 fused at the C-terminus of Fc-ABDEG (two-armed) (Fc fusion, not shown: Fc-ABDEG domain) GGGGSGGGGSGGGGSGGGGSELQVVESGGGLVQAGGSLRLSCAASGRTFRSNTMGWFRQAPGKEREFVAAITWSGGTTYYADSVKGRFAISGDNAKNTVYLQMNSLKPEDTAVYYCAAEGAKWEPWNGIYHPADFGSWGQGTQVTVSS , its koff was 0.000135

Sure, the documented koff for TA-Fc-ABDEG-2H11 (Fc fusion, also called 2H11 parental (two-armed Fc-ABDEG-20GS-Cterm fusion); not shown: Fc-ABDEG domain) GGGGSGGGGSGGGGSGGGGSELQVVESGGGLVQAGGSLRLSCAASGRTFRSNTMGWFRQAPGKEREFVAAITWSGGTTYYADSVKGRFAISGDNAKNTVYLQMNSLKPEDTAVYYCAAEGPKWEPWNGIYHPADFGSWGQGTQVTVSS is 0.00016

These entries and their values trace back to patent US20260152573A1.
